tested.target: Gastrin/cholecystokinin type B receptor (Cavia porcellus)
measurement.protocol: Ability to inhibit the binding of [125I]CCK-8 to Cholecystokinin type B receptor in guinea pig cortex.
property.name: IC50 (nM)
# unit: nM | format: bare number

molecule | tested.target | unit.of.measurement | IC50
O=C(Nc1cccc2ccccc12)NC1CCc2ccccc2N(CC(=O)N2CCCC2)C1=O (centres undefined) | Gastrin/cholecystokinin type B receptor (Cavia porcellus) | nM | 650
COc1cccc(NC(=O)NC2CCc3ccccc3N(CC(=O)O)C2=O)c1 (centres undefined) | Gastrin/cholecystokinin type B receptor (Cavia porcellus) | nM | 8600
CN1CCN(C(=O)CN2C(=O)C(NC(=O)Nc3ccc(Cl)cc3)N=C(c3ccccc3)c3ccccc32)CC1 (centres undefined) | Gastrin/cholecystokinin type B receptor (Cavia porcellus) | nM | 8

What value of measured IC50 is listed for CC(C)(C)OC(=O)CN1C(=O)C(NC(=O)Nc2ccc(Cl)cc2)CCc2ccccc21 (centres undefined) ?
180
